Data origin: paper PMC4104500

Listed here: items and their measured Kd.
testedTarget: T1, Human wild type CIB1 (calcium and integrin binding protein 1) (human, UniProt Q99828 1-191)
T1 sequence (looked up): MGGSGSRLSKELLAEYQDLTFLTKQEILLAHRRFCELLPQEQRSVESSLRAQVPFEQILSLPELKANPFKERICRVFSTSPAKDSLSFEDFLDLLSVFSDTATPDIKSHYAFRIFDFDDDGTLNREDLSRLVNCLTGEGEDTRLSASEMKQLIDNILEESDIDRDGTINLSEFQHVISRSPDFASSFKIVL
protocolNotes: ITC
Dear colleague, please return just the value in µM, with no unit written.

INSERT INTO results (binder, quantityunit, value) VALUES
  ('integrin αL cytoplasmic tail (CT) peptide (peptide) IFIVLYKVGFFKRNLKEKMEAGRGVPNGIPAEDSEQLASGQEAGDPGCLKPLHEKDSESGGGKD', 'µM', 3.2),
  ('IILLLWKCGFFKRARTRALYEAKRQKAEMKSQPSETERLTDDY [integrin α3 cytoplasmic tail (CT) peptide]', 'µM', 5.1),
  ('LVFVMYRMGFFKRVRPPQEEQEREQLQPHENGEGNSET [integrin αV cytoplasmic tail (CT) peptide, wild type]', 'µM', 4.3);

Attention now shifts to the item below.
# Kd lookup, item LIYILYKLGFFKRSLPYGTAMEKAQLKPPATSDA [integrin α5 cytoplasmic tail (CT) peptide]
6.9
